Source: patent US20230295145A1

# Test system: PANC-1
# Measurement protocol: Cell Viability Assay (CellTiter-Glo)
# Type: cell-based
# Experimental conditions: 10 μM, 5 days
Parameter measured: Normalized viability % DMSO (% DMSO)
Numbers only, in % DMSO.

>  <Molecule>
CC(C)(C)[C@@H](C(=O)N1C[C@H](O)C[C@H]1C(=O)NC1CCN(c2ccc(Cl)c(Cl)c2)C1)n1cc(C2CC2)nn1 (stereo partly drawn)

>  <Normalized viability % DMSO, % DMSO>
35.6

$$$$
>  <Molecule>
CC(C)(NC(=O)[C@@H]1C[C@@H](O)CN1C(=O)[C@@H](n1cc(C2CC2)nn1)C(C)(C)C)C(=O)Nc1ccccc1

>  <Normalized viability % DMSO, % DMSO>
22.7

$$$$
>  <Molecule>
CCC(NC(=O)[C@@H]1C[C@@H](O)CN1C(=O)[C@@H](n1cc(C2CC2)nn1)C(C)(C)C)c1noc(-c2cccc(Br)c2)n1 (stereo partly drawn)

>  <Normalized viability % DMSO, % DMSO>
69.8

$$$$
>  <Molecule>
Cc1ncsc1-c1ccc(CNC(=O)[C@@H]2C[C@@H](O)CN2C(=O)[C@@H](n2cc(C3CC3)nn2)C(C)(C)C)cc1

>  <Normalized viability % DMSO, % DMSO>
31.1

$$$$
>  <Molecule>
CCC(CNC(=O)[C@@H]1C[C@@H](O)CN1C(=O)[C@@H](n1cc(C2CC2)nn1)C(C)(C)C)Oc1cccc(C(F)(F)F)c1 (stereo partly drawn)

>  <Normalized viability % DMSO, % DMSO>
51.8

$$$$

Pending molecule:
# lookup: Normalized viability % DMSO of CC(C)(C)[C@@H](C(=O)N1C[C@H](O)C[C@H]1C(=O)NC1CC12CCc1cc(Br)ccc12)n1cc(C2CC2)nn1 (stereo partly drawn) 27.6

###

# Experimental system: VHL (Homo sapiens, UniProt P40337)
# Construct: expressed in transfected cells
# Sequence (P40337 whole entry): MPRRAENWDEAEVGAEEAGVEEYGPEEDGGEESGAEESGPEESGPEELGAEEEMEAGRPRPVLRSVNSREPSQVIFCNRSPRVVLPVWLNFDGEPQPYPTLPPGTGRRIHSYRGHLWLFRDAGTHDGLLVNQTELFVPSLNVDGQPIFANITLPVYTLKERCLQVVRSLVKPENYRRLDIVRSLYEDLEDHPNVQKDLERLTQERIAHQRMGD
# Measurement protocol: VHL HEK-293 BRET Assay (VHL NanoBRET Target Engagement Assay)
# Assay type: cell-based
# Experimental conditions: IC50 values measured in the presence of digitonin; HEK 293 RT VHL-NanoLuc stable cells; read-out: IC50 + Digi (μM)*
I'd be grateful if you could share measured IC50 for these entries.
Answers are plain numbers, in µM.

See these solved cases before continuing.
>  <Compound>
CC(C)(C)[C@@H](C(=O)N1C[C@H](O)C[C@H]1C(=O)NCCC1(O)CN(C(c2ccccc2)c2ccccc2)C1)n1cc(C2CC2)nn1 [Compound 449]

>  <Parameter measured>
IC50

>  <Meas value>
2.17

$$$$
>  <Compound>
CNC(=O)[C@@H]1C[C@@H](O)CN1C(=O)[C@@H](n1cc(COc2ccccc2F)nn1)C(C)(C)C [Compound 729]

>  <Parameter measured>
IC50

>  <Meas value>
1.48

$$$$

Batch request: IC50 for each of the following compounds.
1. CC(C)(NC(=O)[C@@H]1C[C@@H](O)CN1C(=O)[C@@H](n1cc(C2CC2)nn1)C(C)(C)C)c1cccc(C#N)c1 [Compound 561]
2. CNC(=O)[C@@H]1C[C@@H](O)CN1C(=O)[C@@H](n1cc(-c2cnc(F)cc2C)nn1)C(C)(C)C [Compound 792]
3. CC(C)(C)[C@@H](C(=O)N1C[C@H](O)C[C@H]1C(=O)NC1CCc2c(Cl)cc(Cl)cc21)n1cc(C2CC2)nn1 (stereo partly drawn) [Compound 169]

1: 1.64; 2: 2.46; 3: 2.93

Any idea what IC50 came out for CCC(NC(=O)[C@@H]1C[C@@H](O)CN1C(=O)[C@@H](n1cc(C2CC2)nn1)C(C)(C)C)c1noc(-c2cccc(Br)c2)n1 (stereo partly drawn) [Compound 617] on VHL (Homo sapiens, UniProt P40337)? 1.35
